Tested on: A549
Experiment: Cytotoxicity against human A549 cells by MTT assay
Type: functional, cell-based
MEASURED ATTRIBUTE: IC50

Examples with answers:
CC(=O)O[C@@]12CO[C@@H]1C[C@H](O)[C@@]1(C)C(=O)[C@H](O)C3=C(C)[C@@H](OC(=O)[C@H](O)[C@@H](NC(=O)OC(C)(C)C)c4ccccc4)C[C@@](O)([C@@H](OC(=O)c4ccccc4)[C@H]21)C3(C)C.O.O.O = 1.4 µg/mL
CC(=O)O[C@@]12CO[C@@H]1C[C@H](O)[C@@]1(C)C(=O)[C@H](O)C3=C(C)[C@@H](OC(=O)[C@H](OC(=O)C[C@@H](O)C(=O)[O-])[C@@H](NC(=O)OC(C)(C)C)c4ccccc4)C[C@@](O)([C@@H](OC(=O)c4ccccc4)[C@H]21)C3(C)C.[Na+] = > 50 µg/mL
CC(=O)O[C@@]12CO[C@@H]1C[C@H](O)[C@@]1(C)C(=O)[C@H](O)C3=C(C)[C@@H](OC(=O)[C@H](OC(=O)CC(O)C(=O)O)[C@@H](NC(=O)OC(C)(C)C)c4ccccc4)C[C@@](O)([C@@H](OC(=O)c4ccccc4)[C@H]21)C3(C)C (stereo partly specified) = > 50 µg/mL

Item under review: CC(=O)O[C@@]12CO[C@@H]1C[C@H](O)[C@@]1(C)C(=O)[C@H](O)C3=C(C)[C@@H](OC(=O)[C@H](OC(=O)C[C@H](O)C(=O)O)[C@@H](NC(=O)OC(C)(C)C)c4ccccc4)C[C@@](O)([C@@H](OC(=O)c4ccccc4)[C@H]21)C3(C)C . Reported IC50?
> 50 µg/mL

I am curious: what IC50 value has been reported for CC(=O)O[C@@]12CO[C@@H]1C[C@H](O)[C@@]1(C)C(=O)[C@H](O)C3=C(C)[C@@H](OC(=O)[C@H](OC(=O)C[C@@H](O)C(=O)O)[C@@H](NC(=O)OC(C)(C)C)c4ccccc4)C[C@@](O)([C@@H](OC(=O)c4ccccc4)[C@H]21)C3(C)C ?
> 50 µg/mL

Can you share its IC50? I mean this compound: CC(=O)O[C@@]12CO[C@@H]1C[C@H](OC(=O)CC(O)C(=O)O)[C@@]1(C)C(=O)[C@H](O)C3=C(C)[C@@H](OC(=O)[C@H](O)[C@@H](NC(=O)OC(C)(C)C)c4ccccc4)C[C@@](O)([C@@H](OC(=O)c4ccccc4)[C@H]21)C3(C)C (mixture of isomers)
> 50 µg/mL
